# System: 439559-082-T-J2-PDC spheroids viability
# protocol_description: Anticancer human tumor 439559-082-T-J2-PDC patient-derived colon adenocarcinoma cell line growth inhibition [GQUAD]
# measurement_conditions: second compound 0.0316 µM; first compound 1 µM; stronger effect = lower value
experimental_readout: viability, T/C (%)

# compound, display_unit, reported_measurement
data = [
    ("O=c1[nH]cc(F)c(=O)[nH]1 + Cc1[nH]c2ccc(F)cc2c1-c1nc2c3cccnc3c3ncccc3c2[nH]1", "%", 78.9),
    ("COc1cc(C2c3cc4c(cc3C(OC3OC5COC(C)OC5C(O)C3O)C3COC(=O)C23)OCO4)cc(OC)c1O (stereo not given) + Cc1cnc(CNC(=O)c2c(=O)c3ccc(N4CCCN(C)CC4)nc3n3c2sc2ccccc23)cn1", "%", 85.5),
    ("C#Cc1c(F)ccc2cc(O)cc(-c3ncc4c(N5CC6CCC(C5)N6)nc(OCC56CCCN5CC(F)C6)nc4c3F)c12 (stereo not given) + CN(C)c1ccc(Nc2c3ccc(NC(=O)CCN4CCCC4)cc3nc3cc(NC(=O)CCN4CCCC4)ccc23)cc1", "%", 60.1),
    ("CC(=O)O[C@H]1C(=O)[C@@]2(C)[C@H]([C@H](OC(=O)c3ccccc3)[C@]3(O)C[C@H](OC(=O)[C@H](O)[C@@H](NC(=O)c4ccccc4)c4ccccc4)C(C)=C1C3(C)C)[C@]1(OC(C)=O)CO[C@@H]1C[C@@H]2O + CN(C)c1ccc(Nc2c3ccc(NC(=O)CCN4CCCC4)cc3nc3cc(NC(=O)CCN4CCCC4)ccc23)cc1", "%", 62.8),
    ("COc1cc(C2c3cc4c(cc3C(OC3OC5COC(C)OC5C(O)C3O)C3COC(=O)C23)OCO4)cc(OC)c1O (stereo not given) + CN(C)c1ccc(Nc2c3ccc(NC(=O)CCN4CCCC4)cc3nc3cc(NC(=O)CCN4CCCC4)ccc23)cc1", "%", 85.6),
]

###

# Test system: 439559-082-T-J2-PDC spheroids viability
# protocol_description: Anticancer human tumor 439559-082-T-J2-PDC cell line growth inhibition [GQUAD];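 further: spheroids exposed to the agents for 7 days before readout; percent of luminescence signal in DMSO vehicle wells taken as 100% viability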
# measurement_conditions: second compound 0.316 µM; first compound 0.316 µM; stronger effect = lower value

# compound, viability, T/C / %
measured = [
    ("COc1ncnc(C2CC2)c1-c1ncc2cnn(Cc3ccc(-c4nc(C(F)(F)F)cn4C(C)C)cc3)c2n1 + CN(C)c1ccc(Nc2c3ccc(NC(=O)CCN4CCCC4)cc3nc3cc(NC(=O)CCN4CCCC4)ccc23)cc1", 82.7),
    ("COc1cc(C2c3cc4c(cc3C(OC3OC5COC(C)OC5C(O)C3O)C3COC(=O)C23)OCO4)cc(OC)c1O (stereo not given) + CN(C)c1ccc(Nc2c3ccc(NC(=O)CCN4CCCC4)cc3nc3cc(NC(=O)CCN4CCCC4)ccc23)cc1", 89.6),
    ("Nc1ccn(C2OC(CO)C(O)C2(F)F)c(=O)n1 (stereo not given) + Cc1[nH]c2ccc(F)cc2c1-c1nc2c3cccnc3c3ncccc3c2[nH]1", 47.8),
    ("CC(=O)O[C@H]1C(=O)[C@@]2(C)[C@H]([C@H](OC(=O)c3ccccc3)[C@]3(O)C[C@H](OC(=O)[C@H](O)[C@@H](NC(=O)c4ccccc4)c4ccccc4)C(C)=C1C3(C)C)[C@]1(OC(C)=O)CO[C@@H]1C[C@@H]2O + CN(C)c1ccc(Nc2c3ccc(NC(=O)CCN4CCCC4)cc3nc3cc(NC(=O)CCN4CCCC4)ccc23)cc1", 69.7),
    ("CC(C)n1c(=O)n(C)c2cnc3cc(F)c(-c4ccc(OCCCN5CCCCC5)nc4)cc3c21 + Cc1[nH]c2ccc(F)cc2c1-c1nc2c3cccnc3c3ncccc3c2[nH]1", 127),
]
